# System: ATP;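 further: ATP exposure 15 min at 22 °C before imaging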
# procedureText: switch fluorescence ratio, 500 uM ATP over buffer (Cy3 cluster intensity, sum of 5 cycles each) (fold (ratio)); higher = stronger signal-on switching upon ATP binding; sequences stand for … in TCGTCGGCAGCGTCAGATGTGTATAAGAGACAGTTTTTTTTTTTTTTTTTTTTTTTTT…TC
# measurementParameters: aptamer strand: ATP DNA aptamer (quencher-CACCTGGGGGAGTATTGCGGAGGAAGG + anchor), 100 nM annealed; ATP concentration: 500 uM
Kindly return TRUE if reported switch fluorescence ratio is no lower than 1; return FALSE if it is lower.

[
  {
    "sequenceEntry": "GCAGGACGGA",
    "assaySystem": "ATP",
    "className": "TRUE"
  },
  {
    "sequenceEntry": "CGGTAGACCT",
    "assaySystem": "ATP",
    "className": "TRUE"
  },
  {
    "sequenceEntry": "ATAAGGGAAC",
    "assaySystem": "ATP",
    "className": "TRUE"
  },
  {
    "sequenceEntry": "TTTTATTATT",
    "assaySystem": "ATP",
    "className": "FALSE"
  },
  {
    "sequenceEntry": "AAACTGAATA",
    "assaySystem": "ATP",
    "className": "TRUE"
  },
  {
    "sequenceEntry": "TTTTCTTATG",
    "assaySystem": "ATP",
    "className": "FALSE"
  },
  {
    "sequenceEntry": "TCATTCGCAG",
    "assaySystem": "ATP",
    "className": "TRUE"
  },
  {
    "sequenceEntry": "AATGTGCGGG",
    "assaySystem": "ATP",
    "className": "FALSE"
  },
  {
    "sequenceEntry": "GGGTGGGTA",
    "assaySystem": "ATP",
    "className": "TRUE"
  },
  {
    "sequenceEntry": "GAGCTTGTGG",
    "assaySystem": "ATP",
    "className": "TRUE"
  },
  {
    "sequenceEntry": "TTTCGCGATT",
    "assaySystem": "ATP",
    "className": "TRUE"
  },
  {
    "sequenceEntry": "TAGAAATACT",
    "assaySystem": "ATP",
    "className": "TRUE"
  },
  {
    "sequenceEntry": "TCCTTTGTAT",
    "assaySystem": "ATP",
    "className": "TRUE"
  },
  {
    "sequenceEntry": "GGTAAATGTG",
    "assaySystem": "ATP",
    "className": "TRUE"
  },
  {
    "sequenceEntry": "AATGGAATTT",
    "assaySystem": "ATP",
    "className": "TRUE"
  },
  {
    "sequenceEntry": "GTCATATGTC",
    "assaySystem": "ATP",
    "className": "TRUE"
  },
  {
    "sequenceEntry": "GGGGGCGCAA",
    "assaySystem": "ATP",
    "className": "TRUE"
  },
  {
    "sequenceEntry": "GGGCCCATTG",
    "assaySystem": "ATP",
    "className": "FALSE"
  },
  {
    "sequenceEntry": "TCTTTGGGAT",
    "assaySystem": "ATP",
    "className": "FALSE"
  },
  {
    "sequenceEntry": "GGGCTTGCAA",
    "assaySystem": "ATP",
    "className": "TRUE"
  }
]
